Experiment: log P by HPLC (OECD Guideline 117), method [a] acidic range
Assay type: physicochemical
Conditions: HPLC, method [a] acidic range
Metric Name: logP[a]

Cc1cc(C)c(-n2nnn(C(C)C)c2=O)cc1SCC(F)(F)F :: 3.81
CC[S+]([O-])c1nn(-c2cc(SCC(F)(F)F)c(C)cc2F)c(=O)n1C1CC1 (centres unmarked) :: 2.68
Cc1cc(F)c(-n2nc(OCc3ccccc3)n(C3CC3)c2=O)cc1SCC(F)(F)F :: 4.32
CCCSc1nn(-c2cc(SCC(F)(F)F)c(C)cc2F)c(=O)n1CC [Example 426] :: 4.37
CCC(C)Oc1nn(-c2ccc(C)c(SCC(F)(F)F)c2)c(=O)n1C1CC1 (centres unmarked) :: 5.01
COc1nn(-c2cc([S+]([O-])CC(F)(F)F)c(Cl)cc2Cl)c(=O)n1C1CC1 (centres unmarked) :: 2.65

1. CC[S+]([O-])c1nn(-c2cc([S+]([O-])CC(F)(F)F)c(C)cc2F)c(=O)n1C1CC1 (centres unmarked)
2. COCCCn1c(OC)nn(-c2cc(SCC(F)(F)F)c(C)cc2F)c1=O
## Task Higher logP[a] between 1 and 2 ? Kindly give the label for the entry you pick.
## Result 2

----------
Experiment: log P by HPLC (OECD Guideline 117), method [b] neutral range
Type: physicochemical
Settings: reversed-phase C18 HPLC column; HPLC, neutral range, pH 7.8
Metric Name: chromatographic logP

Nc1cc(SCC(F)(F)F)c(Br)cc1F :: 3.12
Cc1cc(F)c(-n2nnn(C)c2=O)cc1SCC(F)(F)F :: 2.86

A. Cc1cc(F)c(-n2nc(C(F)(F)F)n(C)c2=O)cc1SCC(F)(F)F
B. Cc1cc(F)c(-n2ncn(C(C)C)c2=O)cc1[S+]([O-])CC(F)(F)F (stereo not shown)
## Task Problem: Given the entries A and B , determine which has the lower reported chromatographic logP. # answer = label of selected item
## Result B
(B: 2.02, A: 3.53)

----------
Test: log P by HPLC (OECD Guideline 117), method [a] acidic range
Type: physicochemical
Conditions: HPLC, method [a] acidic range
Metric Name: logP[a]

CCn1c(C(F)(F)F)nn(-c2cc([S+]([O-])CC(F)(F)F)c(C)cc2F)c1=O (centres unmarked) [Example 58] :: 2.88
Cc1cc(F)c(-n2nnn(CC(F)(F)F)c2=O)cc1SCC(F)(F)F [Example 304] :: 3.61
CC=Cc1nn(-c2cc(SCC(F)(F)F)c(C)cc2F)c(=S)n1C1CC1 [Example 501] :: 4.00
CCCc1nn(-c2cc(SCC(F)(F)F)c(C)cc2F)c(=O)o1 [Example 460] :: 3.94
Cc1cc(F)c(-n2nc(OCC3CC3)n(C)c2=O)cc1SCC(F)(F)F [Example 143] :: 3.66

----------
Assay: log P by HPLC (OECD Guideline 117), method [a] acidic range
Format: physicochemical
Details: HPLC, method [a] acidic range
Metric Name: logP[a]

A. COC1=CC(=O)N(c2cc([S+]([O-])CC(F)(F)F)c(Cl)cc2F)C1 (stereo not shown)
B. C=CCn1c(C(F)(F)F)nn(-c2cc(SCC(F)(F)F)c(C)cc2F)c1=O
## Task // pick larger logP[a] from pair: A vs B Answer with the label corresponding to your selection.
## Result B
(B: 4.02, A: 2.13)

----------
Test: log P by HPLC (OECD Guideline 117), method [a] acidic range
Type: physicochemical
Conditions: HPLC, method [a] acidic range
Metric Name: logP[a]

As a guide, the following entries are already answered.
C=CCn1c(OC)nn(-c2ccc(C)c([S+]([O-])CC(F)(F)F)c2)c1=O (centres unmarked) [Example 179] :: 2.61
Cc1cc(F)c(-n2nc(C3CCCCC3)n(C3CC3)c2=S)cc1SCC(F)(F)F [Example 496] :: 5.00
Cc1cc(F)c(-n2nc(SC(C)C)n(C3CC3)c2=O)cc1SCC(F)(F)F [Example 268] :: 4.37
COc1nn(-c2cc([S+]([O-])CC(F)(F)F)c(Cl)cc2F)c(=O)n1C (centres unmarked) [Example 98] :: 2.12
C=CCn1c(SCCC)nn(-c2cc(SCC(F)(F)F)c(C)cc2F)c1=O [Example 427] :: 4.45
CCC(C)c1nn(-c2cc(SCC(F)(F)F)c(C)cc2F)c(=O)n1C1CC1 (centres unmarked) [Example 85] :: 4.01
CNc1nn(-c2cc(SCC(F)(F)F)c(C)cc2F)c(=O)n1N [Example 218] :: 2.06
CCCSc1nn(-c2cc(SCC(F)(F)F)c(C)cc2F)c(=O)n1C [Example 277] :: 3.90
COC1=CC(=O)N(c2cc(SCC(F)(F)F)c(C)cc2C)C1 [Example 312] :: 2.88
Cc1cc(F)c(-n2nc(OC(C)(C)C)n(C)c2=O)cc1SCC(F)(F)F [Example 157] :: 3.98

a. CC(C)(C)COc1nn(-c2cc([S+]([O-])CC(F)(F)F)c(Cl)cc2Cl)c(=O)n1C1CC1 (centres unmarked) [Example 405]
b. Cc1cc(F)c(-n2nc([S+](C)[O-])n(C)c2=O)cc1SCC(F)(F)F (centres unmarked) [Example 232]
## Task For the pair a and b , which member has the lower logP[a] number? Lab note: record the label of whichever item you select.
## Result b
(b: 2.25, a: 4.36)

----------
Experiment: log P by HPLC (OECD Guideline 117), method [b] neutral range
Type: physicochemical
Conditions: HPLC, method [b] neutral range
Metric Name: logP[b]

Field: example entries. Status: answers known.
Cc1cc(F)c(N2CC(OC(C)C)=CC2=O)cc1[S+]([O-])CC(F)(F)F (stereo not drawn) [Example 325] :: 2.43
Cc1ccc(-n2nc(C(F)(F)F)n(N)c2=O)cc1SCC(F)(F)F [Example 212] :: 3.37
CCn1c(OC)nn(-c2cc(SCC(F)(F)F)c(C)cc2F)c1=O [Example 180] :: 3.10
Cc1cc(F)c(-n2nc(SC(F)(F)F)n(C)c2=O)cc1SCC(F)(F)F [Example 283] :: 3.64
CCCCOC1=CC(=O)N(c2cc([S+]([O-])CC(F)(F)F)c(C)cc2F)C1 (stereo not drawn) [Example 326] :: 2.88
CCc1nn(-c2cc(SCC(F)(F)F)c(C)cc2F)c(=S)n1C1CC1 [Example 502] :: 3.65

a. Cc1cc(F)c(-n2nc([S+]([O-])CC3CC3)n(C)c2=O)cc1[S+]([O-])CC(F)(F)F (stereo not drawn) [Example 248]
b. C=CCn1c(SCC)nn(-c2cc([S+]([O-])CC(F)(F)F)c(C)cc2F)c1=O (stereo not drawn) [Example 431]
## Task Of a and b , whose reported logP[b] is the larger number? Write down the label attached to your selection.
## Result b

I. Cc1cc(F)c(-n2nc(C)n(N(C)C)c2=O)cc1SCC(F)(F)F [Example 201]
II. CNn1c(N(C)C)nn(-c2cc([S+]([O-])CC(F)(F)F)c(C)cc2F)c1=O (stereo not drawn) [Example 217]
III. CC(C)(C)COc1nn(-c2cc(SCC(F)(F)F)c(Cl)cc2Cl)c(=O)n1C1CC1 [Example 397]
## Task # desc sort on logP[b] across 3 molecules Please list each label once, in the requested order.
## Result III, I, II

----------
Experiment: log P by HPLC (OECD Guideline 117), method [b] neutral range
Assay type: physicochemical
Settings: HPLC, method [b] neutral range
Metric Name: logP[b]

As a guide, the following entries are already answered.
COc1ccc(-n2nc(C(F)(F)F)n(C3CC3)c2=O)cc1[S+]([O-])CC(F)(F)F (stereo not shown) [Example 53] :: 2.93
CCC(C)c1nn(-c2cc(SCC(F)(F)F)c(C)cc2F)c(=S)n1C1CC1 (stereo not shown) [Example 499] :: 4.39

A. CCCSc1nn(-c2cc(SCC(F)(F)F)c(C)cc2F)c(=O)n1CC [Example 426]
B. COC1=CC(=O)N(c2ccc(C(F)(F)F)c([S+]([O-])CC(F)(F)F)c2)C1 (stereo not shown) [Example 321]
## Task Between A and B , which one has the lower reported logP[b] value? Return value: the label identifying the chosen record.
## Result B
(B: 2.55, A: 4.29)

----------
Test: log P by HPLC (OECD Guideline 117), method [a] acidic range
Format: physicochemical
Conditions: reversed-phase C18 HPLC column, pH 2.7, HPLC, acidic range, pH 2.7; read-out: log P[a]
Metric Name: chromatographic logP

Look over these answered cases.
CCn1ccn(-c2cc([S+]([O-])CC(F)(F)F)c(C)cc2F)c1=O (stereo not shown) :: 1.83
CC(C)n1c(Br)n[nH]c1=O :: 0.86
N#Cc1cc(F)c(Br)cc1SCC(F)(F)F :: 3.32
CC[S+]([O-])c1nn(-c2cc(SCC(F)(F)F)c(C)cc2F)c(=O)n1C (stereo not shown) :: 2.55

P. Cc1cc(F)c(-n2nc(C3CC3)n(N(C)C)c2=O)cc1SCC(F)(F)F
Q. Cc1cc(F)c(-n2nnn(C)c2=O)cc1[S+]([O-])CC(F)(F)F (stereo not shown)
## Task Return label of the item with the larger chromatographic logP. Candidates: P , Q . I would appreciate it if you answered with the label of your choice.
## Result P
